test: Potency loss of actives infused into isomalt based candy at 300° F.; assay type: physicochemical
VALUE KIND: Potency loss %: 300° F. for 5 minutes, Infused by Quillaja extract emulsion (%)
// note: answer is a bare numeric in %

Some entries whose results are on file:
C=CC(=C)CCC=C(C)C [Myrcene, myrcene] : −26
C=C(C)[C@H]1CC=C(C)CC1 [Limonene, limonene] : −37
C=C(C)[C@@H]1CCC(C)=C[C@H]1c1c(O)cc(CCCCC)cc1O [CBD, cannabidiol, reference compound] : −5

Quick one: Potency loss %: 300° F. for 5 minutes, Infused by Quillaja extract emulsion for CCCCCc1cc(O)c2c(c1)OC(C)(C)c1ccc(C)cc1-2 [CBN, cannabinol] ?
−1

Quick one: Potency loss %: 300° F. for 5 minutes, Infused by Quillaja extract emulsion for CCCCCc1cc(O)c2c(c1)OC(C)(C)[C@@H]1CCC(C)=C[C@@H]21 [THC, tetrahydrocannabinol, reference compound] ?
−15

---

experiment: Potency loss of actives infused into isomalt based candy at 300° F.; type: physicochemical
VALUE KIND: Potency loss %: 300° F. for 15 minutes, Infused by gum acacia emulsion (%)
// note: answer is a bare numeric in %

Some entries whose results are on file:
CCCCCc1cc(O)c2c(c1)OC(C)(C)[C@@H]1CCC(C)=C[C@@H]21 [THC, tetrahydrocannabinol, reference compound] : −16
CCCCCc1cc(O)c2c(c1)OC(C)(C)c1ccc(C)cc1-2 : 0
C=C(C)[C@@H]1CCC(C)=C[C@H]1c1c(O)cc(CCCCC)cc1O [CBD, cannabidiol, reference compound] : −2
C=C(C)[C@H]1CC=C(C)CC1 : −17

Quick one: Potency loss %: 300° F. for 15 minutes, Infused by gum acacia emulsion for "C=CC(=C)CCC=C(C)C" ?
−15

Reference source: patent US12144365B2
